test system: HepG2; assay: cytotoxicity call (relative viability < 0.9); settings: 10 µM
In all, about 39,000 compounds went through this assay and about 3,300 (8.5%) were called active. The entries come from a sample that favours actives as a whole.
Labels: 1 for active, 0 for inactive

C[C@@H]1CN([C@H](C)CO)C(=O)c2cc(NC(=O)C3CCCCC3)ccc2O[C@@H](C)CCCCO[C@H]1CN(C)C(=O)c1ccncc1 : 0
O=C(CCCCCNC(=O)OCc1ccc(CO[C@H]2C[C@@H](c3ccc(C(F)(F)F)cc3)C=C(C(=O)N3CCN(Cc4ccc5c(c4)OCO5)CC3)O2)cc1)NO : 0
Cn1cnc(S(=O)(=O)N2C[C@@H](O)COC[C@H]3O[C@H](CC(=O)NCc4ccc(F)cc4)CC[C@@H]32)c1 : 0
COc1ccc(S(=O)(=O)N(C)C[C@H]2Oc3c(cccc3N(C)C)C(=O)N([C@H](C)CO)C[C@@H]2C)cc1 : 0
C[C@H](CO)N1C[C@H](C)[C@H](CN(C)Cc2cncnc2)Oc2cc(C#CC3CCCC3)ccc2S1(=O)=O : 0
CO[C@H](C(=O)N(C)C[C@@H]1OCc2ccccc2-c2c(n(C)c3ccccc23)C(=O)N([C@H](C)CO)C[C@H]1C)c1ccccc1 : 0
COC(=O)Cc1csc(CC(N)=O)n1 : 1
